Molecular target: HDAC6 enzyme (Homo sapiens)
Construct: HDAC6 enzyme prepared by transducing full length HDAC6 gene into Sf-9 insect cells; GST; purchased SignalChem; host or cells: Sf-9 insect cells
Sequence (Q9UBN7 whole entry): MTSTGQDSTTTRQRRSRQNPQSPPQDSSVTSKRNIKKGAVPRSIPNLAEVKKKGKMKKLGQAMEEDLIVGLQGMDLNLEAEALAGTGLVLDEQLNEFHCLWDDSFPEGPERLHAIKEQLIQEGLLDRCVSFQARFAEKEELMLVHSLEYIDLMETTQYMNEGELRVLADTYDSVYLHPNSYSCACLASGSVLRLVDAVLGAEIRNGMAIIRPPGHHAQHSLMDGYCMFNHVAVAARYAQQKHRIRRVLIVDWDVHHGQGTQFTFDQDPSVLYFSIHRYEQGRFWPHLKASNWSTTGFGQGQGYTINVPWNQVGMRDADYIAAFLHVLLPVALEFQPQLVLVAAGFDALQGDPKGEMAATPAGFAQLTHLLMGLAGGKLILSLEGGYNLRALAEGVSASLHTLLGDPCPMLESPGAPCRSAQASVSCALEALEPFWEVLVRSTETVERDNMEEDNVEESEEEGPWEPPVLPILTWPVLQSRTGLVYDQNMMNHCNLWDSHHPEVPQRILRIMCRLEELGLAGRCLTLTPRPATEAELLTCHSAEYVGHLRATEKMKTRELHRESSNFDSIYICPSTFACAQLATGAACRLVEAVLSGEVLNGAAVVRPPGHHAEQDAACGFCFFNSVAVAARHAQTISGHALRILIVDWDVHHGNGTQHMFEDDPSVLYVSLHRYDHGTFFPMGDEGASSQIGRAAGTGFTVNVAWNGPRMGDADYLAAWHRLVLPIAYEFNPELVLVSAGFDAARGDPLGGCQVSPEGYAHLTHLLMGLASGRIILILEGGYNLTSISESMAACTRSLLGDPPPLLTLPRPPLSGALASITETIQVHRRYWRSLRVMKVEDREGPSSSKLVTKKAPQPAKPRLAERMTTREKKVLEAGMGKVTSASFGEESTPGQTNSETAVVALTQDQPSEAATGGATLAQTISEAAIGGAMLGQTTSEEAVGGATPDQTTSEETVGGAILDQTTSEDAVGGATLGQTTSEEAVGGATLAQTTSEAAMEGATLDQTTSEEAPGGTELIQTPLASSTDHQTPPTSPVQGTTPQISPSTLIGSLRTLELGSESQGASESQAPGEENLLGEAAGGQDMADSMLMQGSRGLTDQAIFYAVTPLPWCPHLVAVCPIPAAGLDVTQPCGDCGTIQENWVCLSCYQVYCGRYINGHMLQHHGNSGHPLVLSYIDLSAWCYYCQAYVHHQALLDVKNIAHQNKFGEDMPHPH
Test: HDAC6 enzyme inhibitory assay (HDAC-Glo I/II Assay kit)
Format: biochemical
Conditions: wells without enzyme = 100% inhibition, 10 µM
Reported HDAC6 inhibitory rate (%) (10 μM) is given for each of the following compounds.
Measurement label: HDAC6 inhibitory rate (%) (10 μM)

Compound	Measurement label	Unit annotation	Test result
O=C1c2cc(-c3nnc(C(F)F)o3)ccc2CN1[C@H](c1ccc(F)cc1F)[C@@H](O)c1ccc(F)cc1 (single isomer, unassigned)	HDAC6 inhibitory rate (%) (10 μM)	%	100
O=C1c2cc(-c3nnc(C(F)F)o3)ccc2CN1[C@H](C1CC1)[C@@H](O)c1cccc(F)n1 (single isomer, unassigned)	HDAC6 inhibitory rate (%) (10 μM)	%	100
O=C1c2cc(-c3nnc(C(F)F)o3)ccc2CN1[C@H](c1ccccn1)[C@@H](O)c1cc(Cl)ccn1 (single isomer, unassigned)	HDAC6 inhibitory rate (%) (10 μM)	%	100

Where do the numbers come from? From patent US12384770B2.
